- targetSystem: human PRS protein (Homo sapiens)
- Construct: to construct His-Avi-hEPRS (998-1512) expression plasmid; His tag (N); Avi tag (N); TEV cleavage site (ENLYFQ/GS, encoded by forward primer hEPRS-TEV-NheF) (N); made in house; host or cells: E. coli BL21(DE3)
- Sequence (P07814 998-1512): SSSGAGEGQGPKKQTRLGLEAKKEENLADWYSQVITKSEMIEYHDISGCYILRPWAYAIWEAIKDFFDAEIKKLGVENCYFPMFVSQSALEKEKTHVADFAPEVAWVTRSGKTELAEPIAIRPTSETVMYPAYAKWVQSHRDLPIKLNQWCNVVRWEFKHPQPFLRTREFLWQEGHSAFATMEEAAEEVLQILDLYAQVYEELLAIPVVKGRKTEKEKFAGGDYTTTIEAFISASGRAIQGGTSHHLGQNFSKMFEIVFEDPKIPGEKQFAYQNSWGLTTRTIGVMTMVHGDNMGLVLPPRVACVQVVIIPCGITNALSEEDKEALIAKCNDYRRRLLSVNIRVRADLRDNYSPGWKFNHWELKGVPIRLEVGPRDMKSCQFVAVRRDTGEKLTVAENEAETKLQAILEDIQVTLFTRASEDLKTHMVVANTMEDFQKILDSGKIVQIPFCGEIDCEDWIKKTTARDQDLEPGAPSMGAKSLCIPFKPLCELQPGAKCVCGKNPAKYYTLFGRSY
- methodNotes: PRS inhibitory activity (ATP/[32P]pyrophosphate exchange enzyme reaction)
- Assay type: biochemical
- measurementConditions: 300 nM test compound; recombinant human PRS (EPRS 998-1512); read-out: inhibitory rate (%) of PRS
endpointLabel: inhibition at 0.3 µM (%)
Please give a number only; it is taken to be in %.

INPUT: Give the reported value of inhibition at 0.3 µM for this record: CC(C)Cn1cc(-c2cccc(CC(=O)Nc3cc(N4CC[C@@](C#N)(C5CC5)C4=O)ccn3)c2)cn1
OUTPUT: 98

INPUT: Give the reported value of inhibition at 0.3 µM for this record: N#C[C@@]1(C2CC2)CCN(c2ccnc(NC(=O)Cc3cccc(-c4cccnc4)c3)c2)C1=O
OUTPUT: 97

INPUT: Give the reported value of inhibition at 0.3 µM for this record: N#C[C@@]1(C2CC2)CCN(c2ccnc(NC(=O)Cc3csc4ccccc34)c2)C1=O
OUTPUT: 94

INPUT: Give the reported value of inhibition at 0.3 µM for this record: COCCn1cc(-c2cccc(CC(=O)Nc3cc(N4CC[C@@](C#N)(C5CC5)C4=O)ccn3)c2)cn1
OUTPUT: 99

INPUT: Give the reported value of inhibition at 0.3 µM for this record: Cc1cc(N2CC[C@@](C#N)(C3CC3)C2=O)cc(NC(=O)Cc2ccccc2)n1
OUTPUT: 94
